# Tested on: SEM cells
# Experiment: cell viability relative to DMSO control; higher = less cytotoxic
# Details: RPMI 5 mM glucose + 10% dialyzed FBS; 48 h; 0.19 µM
The compounds listed here are annotated with their cell viability.
Give the quantity in %, number only.

Observe how each entry below is paired with its result.
| Entry smiles | Endpoint name | Quantitative result |
| --- | --- | --- |
| COc1ccc(CCN2CCN(CCCc3ccccc3)CC2)cc1OC | cell viability | 162 |
| C[C@@H](c1ncncc1F)[C@](O)(Cn1cncn1)c1ccc(F)cc1F | cell viability | 32.3 |
| O=C(Nc1ccc(OC(F)(F)F)cc1)c1sccc1NCc1ccnc2ccccc12 | cell viability | 136 |

Quickly give me recorded cell viability for CCC1=C[C@@H]2CN(C1)Cc1c([nH]c3ccccc13)[C@@](C(=O)OC)(c1cc3c(cc1OC)N(C)[C@H]1[C@@](O)(C(=O)OC)[C@H](OC(C)=O)[C@]4(CC)C=CCN5CC[C@]31[C@@H]54)C2 30

Quickly give me recorded cell viability for O=C1c2c(O)cccc2[C@H]([C@@H]2O[C@H](CO)[C@@H](O)[C@H](O)[C@H]2O)c2cc(CO)cc(O)c21 101
